Data provenance is ChEMBL document CHEMBL4002608.

- System: Escherichia coli DH5[alpha]
- Test Summary: Inhibition of Escherichia coli DH5alpha C-terminal His6-tagged MurA expressed in Escherichia coli BL21(DE3) assessed as residual activity at 100 uM using UNAG as substrate after 15 mins in presence of PEP by malachite green dye based spectrophotometric method relative to control
Assay Readout: Activity (%)

Q: Need Activity of `CS(=O)(=O)N1CCc2cc(C(=O)N3CCC(c4cc5ccccc5[nH]4)CC3)ccc21` , thanks.
Ans: 85

Q: Return reported Activity; argument: `O=C1[C@@H]2C3c4ccccc4C(C(=O)O)(c4ccccc43)[C@@H]2C(=O)N1c1cccc([N+](=O)[O-])c1`
Ans: 98

Q: Can you look up the measured Activity of `O=C(CCN1CCCO1)N1CCc2[nH]nc(-c3cccc4ccccc34)c2C1` for me?
Ans: 86

Q: Please look up its Activity: `Cc1c(C(=O)N2CCC[C@@H](C(N)=O)C2)sc2ncnc(NCCCc3ccccc3)c12`
Ans: 100

Q: Can you look up the measured Activity of `O=C(O)COc1ccccc1[C@@H]1C2=C(CCCC2=O)Nc2nc(SCc3ccccn3)nn21` for me?
Ans: 91

----------
- System: Escherichia coli DH5[alpha]
- Test Summary: Inhibition of Escherichia coli DH5alpha C-terminal His6-tagged MurA expressed in Escherichia coli BL21(DE3) assessed as residual activity at 100 uM using UNAG as substrate after 15 mins in presence of PEP by malachite green dye based spectrophotometric method relative to control
Assay Readout: Activity (%)

Q: Notebook entry, Escherichia coli DH5[alpha] assay: Activity of `O=C(O)c1nn(CCCc2ccccc2)c2c1CN(C(=O)c1ccc[nH]1)CC2` = ?
Ans: 91

A. O=C(O)[C@H]1CC2(CCN(C(=O)c3cc4ccccc4[nH]3)CC2)CN1C(=O)C1CC1
B. CCc1cc(C(=O)N2CCN[C@H](C(=O)O)C2)c(NC(=O)c2ccccc2)s1
Q: API: POST /compare with A and B ; response names the item with higher Activity. Response format: the label of the selected entry.
Ans: A
(A: 100%, B: 63%)

----------
- Test system: Escherichia coli DH5[alpha]
- Test Summary: Inhibition of Escherichia coli DH5alpha C-terminal His6-tagged MurA expressed in Escherichia coli BL21(DE3) assessed as residual activity at 100 uM using UNAG as substrate after 15 mins in presence of PEP by malachite green dye based spectrophotometric method relative to control
Assay Readout: Activity (%)

Q: Observed Activity on Escherichia coli DH5[alpha] for `CS(=O)(=O)N1CCN([C@H](C(=O)O)c2c(C(=O)O)n(Cc3ccccc3)c3ccccc23)CC1` , please.
Ans: 99

Q: Query the reported Activity for Escherichia coli DH5[alpha]; item: `CO[C@H](C(=O)N1CCc2c(cnc(C)c2CNC(=O)c2cccs2)C1)c1ccccc1`
Ans: 92

Q: Query Activity on Escherichia coli DH5[alpha] for `O=C(Nc1cc(CCc2ccccc2)ccn1)[C@H]1CCCN(c2ncccn2)C1`
Ans: 99

----------
Entries annotated with measured Activity
- Tested on: Escherichia coli DH5[alpha]
- Test Summary: Inhibition of Escherichia coli DH5alpha C-terminal His6-tagged MurA expressed in Escherichia coli BL21(DE3) assessed as residual activity at 100 uM using UNAG as substrate after 15 mins in presence of PEP by malachite green dye based spectrophotometric method relative to control

Q: // Activity lookup, key: `Cc1n[nH]c(S/C(=C/c2ccc(-c3cccc(C(=O)O)c3)o2)C(=O)O)n1`
Ans: < 50%

Q: What value of measured Activity is listed for `O=C(O)c1ccc(-c2nccn2Cc2nc3ccccc3c(=O)[nH]2)cc1` ?
Ans: < 50%

Further cases:
Q: Requested read-out: Activity. Entry: `O=C(c1cnn(Cc2ccccc2)c1)N1CC=C(c2c[nH]c3ncccc23)CC1`
Ans: < 50%
